The reader will find MIC measurements below, all made with Escherichia coli NIHJ.
readout type: MIC (µg/mL)

> print(dat)
                                    compound  readout.type  display.unit  quantitative.result
 1  CCOC(=O)Oc1c(C(=O)N[C@@H](C(=O)N[C@@H]2C(=O)N3[C@@H]2SC(C)(C)[C@@H]3C(=O)O)c2ccc(OC)cc2)cnc2cccnc12           MIC         µg/mL                 3.13
 2  CC1(C)S[C@@H]2[C@H](NC(=O)C(NC(=O)c3cnc4cc(N)ccc4c3O)c3cccc(N)c3)C(=O)N2[C@H]1C(=O)O (stereo partly shown)           MIC         µg/mL                 3.13
 3  CC1(C)S[C@@H]2[C@H](NC(=O)C(NC(=O)c3cnc4ccc(O)nc4c3O)c3cccc(N)c3)C(=O)N2[C@H]1C(=O)O (stereo partly shown)           MIC         µg/mL                 0.78
 4  CCNc1ccc2ncc(C(=O)NC(C(=O)NC3C(=O)N4C3SC(C)(C)C4C(=O)O)c3cccc(N)c3)c(O)c2n1 (stereo not shown)           MIC         µg/mL                 0.78
 5  Cc1ccc2ncc(C(=O)NC(C(=O)NC3C(=O)N4C3SC(C)(C)C4C(=O)O)c3ccc(N(C)C)cc3)c(O)c2n1 (stereo not shown)           MIC         µg/mL                 3.13
 6  Cc1ccc2ncc(C(=O)NC(C(=O)N[C@@H]3C(=O)N4[C@@H]3SC(C)(C)[C@@H]4C(=O)O)c3ccc(N)cc3)c(O)c2n1 (stereo partly shown)           MIC         µg/mL                 0.78
 7  CSc1nc2ccc3ncc(C(=O)NC(C(=O)NC4C(=O)N5C4SC(C)(C)C5C(=O)O)c4cccc(N)c4)c(O)c3c2s1 (stereo not shown)           MIC         µg/mL                 3.13
 8  CC(=O)Nc1ccc2ncc(C(=O)NC(C(=O)N[C@@H]3C(=O)N4[C@@H]3SC(C)(C)[C@@H]4C(=O)O)c3cccc(N)c3)c(O)c2n1 (stereo partly shown)           MIC         µg/mL                 0.78
 9  Cc1ncc2c(O)c(C(=O)NC(C(=O)NC3C(=O)N4C3SC(C)(C)C4C(=O)O)c3cccc(N)c3)cnc2n1 (stereo not shown)           MIC         µg/mL                 1.56
10  CC1(C)S[C@@H]2[C@H](NC(=O)C(NC(=O)c3cnc4ccccc4c3O)c3cccc(N)c3)C(=O)N2[C@H]1C(=O)O (stereo partly shown)           MIC         µg/mL                 3.13
11  COc1ccc(C(NC(=O)c2cnc3ccc(C)nc3c2O)C(=O)NC2C(=O)N3C2SC(C)(C)C3C(=O)O)cc1 (stereo not shown)           MIC         µg/mL                 3.13
12  CC(=O)Nc1cccc([C@@H](NC(=O)c2cnc3ccccc3c2OC(=O)C(C)(C)C)C(=O)N[C@@H]2C(=O)N3[C@@H]2SC(C)(C)[C@@H]3C(=O)O)c1           MIC         µg/mL                 3.13
13  CNc1ncc2c(O)c(C(=O)NC(C(=O)NC3C(=O)N4C3SC(C)(C)C4C(=O)O)c3cccc(N)c3)cnc2n1 (stereo not shown)           MIC         µg/mL                 3.13

---

# Tested on: Escherichia coli NIHJ
readout type: MIC (µg/mL)

> print(dat)
                                   compound  quantitative.result
1  CC1(C)SC2C(NC(=O)C(NC(=O)c3cnc4nc(N5CCOCC5)ncc4c3O)c3ccc(N)cc3)C(=O)N2C1C(=O)O (stereo not shown)                 3.13
2  CC1(C)SC2C(NC(=O)C(NC(=O)c3cnc4cccnc4c3S)c3cccc(N)c3)C(=O)N2C1C(=O)O (stereo not shown)                 1.56
3  CC1(C)SC2C(NC(=O)C(NC(=O)c3cnc4cccnc4c3O)c3ccc(O)c(N)c3)C(=O)N2C1C(=O)O (stereo not shown)                 0.78
4  CC1(C)SC2C(NC(=O)C(NC(=O)c3nc4ccccc4nc3O)c3cccc(F)c3)C(=O)N2C1C(=O)O (stereo not shown)                 3.13

---

The reader will find MIC measurements below, all made with Escherichia coli NIHJ.
readout type: MIC (µg/mL)

> print(dat)
                                   molecule  quantitative.result
1  CCOC(=O)Oc1c(C(=O)NC(C(=O)NC2C(=O)N3C2SC(C)(C)C3C(=O)O)c2ccc(OC)cc2)cnc2ccc(C)nc12 (stereo not drawn)                 3.13
2  CC1(C)SC2C(NC(=O)C(NC(=O)c3cnc4nc(N5CCCC5)ncc4c3O)c3cccc(N)c3)C(=O)N2C1C(=O)O (stereo not drawn)                 3.13
3  CC1(C)S[C@@H]2[C@H](NC(=O)C(NC(=O)c3cnc4cc([N+](=O)[O-])ccc4c3O)c3cccc(N)c3)C(=O)N2[C@H]1C(=O)O (stereo partly drawn)                 3.13

---

# Tested on: Escherichia coli NIHJ
Structures can show the parent of a compound that is named as a salt.
In this section, each of the compounds is paired with its reported MIC.
readout type: MIC (µg/mL)

compound	quantitative result
COc1nc(OC)c2ncc(C(=O)NC(C(=O)NC3C(=O)N4C3SC(C)(C)C4C(=O)O)c3cccc(N)c3)c(O)c2n1 (stereo not drawn) [Example 57]	0.78
Cc1ccc2c(O)c(C(=O)NC(C(=O)N[C@@H]3C(=O)N4[C@@H]3SC(C)(C)[C@@H]4C(=O)O)c3cccc(N)c3)cnc2n1 (stereo partly drawn) [Example 18]	1.56
Cc1ccc(C(NC(=O)c2cnc3cccnc3c2O)C(=O)N[C@@H]2C(=O)N3[C@@H]2SC(C)(C)[C@@H]3C(=O)O)cc1 (stereo partly drawn) [Example 13]	0.78
Cc1nc(O)c2c(O)c(C(=O)NC(C(=O)NC3C(=O)N4C3SC(C)(C)C4C(=O)O)c3cccc(N)c3)cnc2n1 (stereo not drawn) [Example 56]	1.56
CCn1ncc2c(O)c(C(=O)NC(C(=O)NC3C(=O)N4C3SC(C)(C)C4C(=O)O)c3ccc(N)cc3)cnc21 (stereo not drawn) [Example 59]	3.13
CC1(C)SC2C(NC(=O)C(NC(=O)c3cnc4nc(N)ncc4c3O)c3cccc(N)c3)C(=O)N2C1C(=O)O (stereo not drawn) [Example 42]	3.13
CC1(C)SC2C(NC(=O)C(NC(=O)c3cnc4ccc(N5CCCC5)nc4c3O)c3ccc(N)cc3)C(=O)N2C1C(=O)O (stereo not drawn) [Example 52]	0.78
CN(C)c1ccc([C@@H](NC(=O)c2cnc3cccnc3c2O)C(=O)N[C@@H]2C(=O)N3[C@@H]2SC(C)(C)[C@@H]3C(=O)O)cc1 [Example 5, sodium salt]	3.13
CC1(C)S[C@@H]2[C@H](NC(=O)[C@H](NC(=O)c3nnc4ccccc4c3O)c3cccc(N)c3)C(=O)N2[C@H]1C(=O)O [Example 6]	6.25
CC1(C)S[C@@H]2[C@H](NC(=O)[C@H](NC(=O)c3cnc4cccnc4c3O)c3cccc(N)c3)C(=O)N2[C@H]1C(=O)O [Example 1, sodium salt]	0.78
Cc1ccc2ncc(C(=O)NC(C(=O)N[C@@H]3C(=O)N4[C@@H]3SC(C)(C)[C@@H]4C(=O)O)c3cccc(N)c3)c(O)c2n1 (stereo partly drawn) [Example 19]	0.78
COc1ccc(C(NC(=O)c2cnc3ccncc3c2O)C(=O)NC2C(=O)N3C2SC(C)(C)C3C(=O)O)cc1 (stereo not drawn) [Example 41]	3.13
COc1cc(C(NC(=O)c2cnc3cccnc3c2O)C(=O)NC2C(=O)N3C2SC(C)(C)C3C(=O)O)ccc1O (stereo not drawn) [Example 64]	3.13
COc1ccc(C(NC(=O)c2cnc3cn[nH]c3c2O)C(=O)NC2C(=O)N3C2SC(C)(C)C3C(=O)O)cc1 (stereo not drawn) [Example 34]	3.13
CC1(C)S[C@@H]2[C@H](NC(=O)C(NC(=O)c3cnc4cc(Cl)ccc4c3O)c3ccc(N)cc3)C(=O)N2[C@H]1C(=O)O (stereo partly drawn) [Example 17]	3.13
CCNc1ccc(C(NC(=O)c2cnc3cccnc3c2O)C(=O)N[C@@H]2C(=O)N3[C@@H]2SC(C)(C)[C@@H]3C(=O)O)cc1 (stereo partly drawn) [Example 10]	0.78
CC1(C)S[C@@H]2[C@H](NC(=O)C(NC(=O)c3cnc4cccnc4c3O)c3cccc(I)c3)C(=O)N2[C@H]1C(=O)O (stereo partly drawn) [Example 11]	1.56
CC1(C)SC2C(NC(=O)C(NC(=O)c3cnc4cncnc4c3O)c3cccc(N)c3)C(=O)N2C1C(=O)O (stereo not drawn) [Example 33]	0.78
COc1ccc(C(NC(=O)c2cnc3ccccc3c2S)C(=O)NC2C(=O)N3C2SC(C)(C)C3C(=O)O)cc1 (stereo not drawn) [Example 38]	6.25
CSc1ccc2ncc(C(=O)NC(C(=O)N[C@@H]3C(=O)N4[C@@H]3SC(C)(C)[C@@H]4C(=O)O)c3ccc(N)cc3)c(O)c2n1 (stereo partly drawn) [Example 24]	0.78
CC1(C)SC2C(NC(=O)C(NC(=O)c3cnc4cc5c(cc4c3S)OCO5)c3cccc(N)c3)C(=O)N2C1C(=O)O (stereo not drawn) [Example 36]	6.25
CN(C)c1ccc2ncc(C(=O)NC(C(=O)N[C@@H]3C(=O)N4[C@@H]3SC(C)(C)[C@@H]4C(=O)O)c3cccc(N)c3)c(O)c2n1 (stereo partly drawn) [Example 22]	0.78
COc1ccc2c(O)c(C(=O)NC(C(=O)N[C@@H]3C(=O)N4[C@@H]3SC(C)(C)[C@@H]4C(=O)O)c3cccc(N)c3)cnc2c1 (stereo partly drawn) [Example 20]	3.13
COc1ccc([C@@H](NC(=O)c2cnc3cccnc3c2O)C(=O)N[C@@H]2C(=O)N3[C@@H]2SC(C)(C)[C@@H]3C(=O)O)cc1 [Example 4, sodium salt]	3.13

Values compiled from patent US3992371A.
